test: Octanol-sodium phosphate buffer partition coefficient, log D of the compound at pH 7.4; format: physicochemical
measured.parameter: logD
Numbers only.

Recorded logD for "Cc1c(-c2ccc3ncccc3c2)nnn1-c1cccnc1[18F]" , please?
2.53
